Tested on: Kluyveromyces marxianus
ASSAY DETAILS: Antifungal activity against Candida pseudotropicalis assessed as fungal growth inhibition at 100 ug/ml by micro-dilution method relative to control
Format: functional
SETTINGS: read-out: GI

MOLECULE: O=C1CC[C@@H](C(=O)N/N=C/c2cc(F)ccc2F)N1
SYSTEM NAME: Kluyveromyces marxianus
inhibition of growth at 100 µg/mL [%]: 18
--
MOLECULE: O=C1CC[C@@H](C(=O)N/N=C/c2ccc(C(F)(F)F)cc2)N1
SYSTEM NAME: Kluyveromyces marxianus
inhibition of growth at 100 µg/mL [%]: 21
--
MOLECULE: O=C1CC[C@@H](C(=O)N/N=C/c2ccc(Cl)cc2)N1
SYSTEM NAME: Kluyveromyces marxianus
inhibition of growth at 100 µg/mL [%]: 50
--
MOLECULE: O=C1CC[C@@H](C(=O)N/N=C/c2ccccc2)N1
SYSTEM NAME: Kluyveromyces marxianus
inhibition of growth at 100 µg/mL [%]: 7
--
MOLECULE: Cc1ccc(/C=N/NC(=O)[C@@H]2CCC(=O)N2)cc1
SYSTEM NAME: Kluyveromyces marxianus
inhibition of growth at 100 µg/mL [%]: 32
--
MOLECULE: COc1cc(/C=N/NC(=O)[C@@H]2CCC(=O)N2)ccc1O
SYSTEM NAME: Kluyveromyces marxianus
inhibition of growth at 100 µg/mL [%]: 0
--
MOLECULE: CN(NC1CCC(=O)N1)c1ccccc1 (racemic)
SYSTEM NAME: Kluyveromyces marxianus
inhibition of growth at 100 µg/mL [%]: 61
--
MOLECULE: COc1ccc(/C=N/NC(=O)[C@@H]2CCC(=O)N2)cc1
SYSTEM NAME: Kluyveromyces marxianus
inhibition of growth at 100 µg/mL [%]: 40
--
MOLECULE: O=C1CC[C@@H](C(=O)N/N=C/c2ccc([N+](=O)[O-])cc2)N1
SYSTEM NAME: Kluyveromyces marxianus
inhibition of growth at 100 µg/mL [%]: 38
--
MOLECULE: O=C1CC[C@@H](C(=O)N/N=C/c2c(Cl)cccc2Cl)N1
SYSTEM NAME: Kluyveromyces marxianus
inhibition of growth at 100 µg/mL [%]: 32
--
MOLECULE: O=C1CC[C@@H](C(=O)N/N=C/c2ccccc2[N+](=O)[O-])N1
SYSTEM NAME: Kluyveromyces marxianus
inhibition of growth at 100 µg/mL [%]: 35
--
MOLECULE: O=C1CC[C@@H](C(=O)N/N=C/CCc2ccccc2)N1
SYSTEM NAME: Kluyveromyces marxianus
inhibition of growth at 100 µg/mL [%]: 12
--
MOLECULE: O=C1CC[C@@H](C(=O)N/N=C/c2ccc(Br)cc2)N1
SYSTEM NAME: Kluyveromyces marxianus
inhibition of growth at 100 µg/mL [%]: 2
--
MOLECULE: O=C1CCC(NNc2cc(F)ccc2F)N1 (racemic)
SYSTEM NAME: Kluyveromyces marxianus
inhibition of growth at 100 µg/mL [%]: 65
--
MOLECULE: C=C(C)C1CC=C(/C=N/NC(=O)[C@@H]2CCC(=O)N2)CC1 (stereo partly drawn)
SYSTEM NAME: Kluyveromyces marxianus
inhibition of growth at 100 µg/mL [%]: 0
--
MOLECULE: CC1(C)C2CC=C(/C=N/NC(=O)[C@@H]3CCC(=O)N3)C1C2 (stereo partly drawn)
SYSTEM NAME: Kluyveromyces marxianus
inhibition of growth at 100 µg/mL [%]: 18
--
MOLECULE: O=C1CCC(NNc2ccc(C(F)(F)F)cc2)N1 (racemic)
SYSTEM NAME: Kluyveromyces marxianus
inhibition of growth at 100 µg/mL [%]: 38
--
MOLECULE: N#Cc1ccc(/C=N/NC(=O)[C@@H]2CCC(=O)N2)cc1
SYSTEM NAME: Kluyveromyces marxianus
inhibition of growth at 100 µg/mL [%]: 0
--
MOLECULE: O=C1CC[C@@H](C(=O)N/N=C/c2cccc(C(F)(F)F)c2Cl)N1
SYSTEM NAME: Kluyveromyces marxianus
inhibition of growth at 100 µg/mL [%]: 18
--
MOLECULE: O=C1CC[C@@H](C(=O)N/N=C/c2ccccc2O)N1
SYSTEM NAME: Kluyveromyces marxianus
inhibition of growth at 100 µg/mL [%]: 18
--
MOLECULE: COc1cc(/C=N/NC(=O)[C@@H]2CCC(=O)N2)cc(OC)c1OC
SYSTEM NAME: Kluyveromyces marxianus
inhibition of growth at 100 µg/mL [%]: 18
--
MOLECULE: CC(C)=CCC/C(C)=C/C=N/NC(=O)[C@@H]1CCC(=O)N1
SYSTEM NAME: Kluyveromyces marxianus
inhibition of growth at 100 µg/mL [%]: 8
--
MOLECULE: O=C1CC[C@@H](C(=O)N/N=C/c2c(F)c(F)c(F)c(F)c2F)N1
SYSTEM NAME: Kluyveromyces marxianus
inhibition of growth at 100 µg/mL [%]: 0
